# run description: recombinant barcode read abundance after kanamycin selection (control-corrected) (log10(CPM+1)); higher = more efficient recombination; sequences stand for … in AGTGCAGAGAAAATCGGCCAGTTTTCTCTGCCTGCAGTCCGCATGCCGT…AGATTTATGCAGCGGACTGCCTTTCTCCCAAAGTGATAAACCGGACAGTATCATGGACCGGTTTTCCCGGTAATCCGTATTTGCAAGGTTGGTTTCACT; site = the 11-nt target;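 also: IS621 recombinase and bridge RNA in Escherichia coli cells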
measured endpoint: recombinant barcode read abundance (log10)

{"columns": ["sequence text", "endpoint value"],
 "data": [
  ["GTATGCCCTTGGGTTCTAACCTGTTGCCT (site GTGGGCCCTAG)", 0],
  ["TCCGTCTCTTGGGTTCTAACCTGTTGCCG (site TCCGTCTCTTG)", 0.0281],
  ["TTATCTCCTTGGGTTCTAACCTGTTGCTT (site TCGTCTCCTAA)", 0.0381],
  ["GAAGCTACTTGGGTTCTAACCTGTTGCGT (site GAAGCTACTAC)", 1.84],
  ["TAATATTCTTGGGTTCTAACCTGTTGCCT (site TAATATTCTAG)", 0.0128],
  ["GGATCTACTTGGGTTCTAACCTGTTGCCT (site GCATCTACTAG)", 0.514],
  ["GGCAGTCCTTGGGTTCTAACCTGTTGCCT (site GGCAGTCCTAG)", 0.206],
  ["CTTACCGCTTGGGTTCTAACCTGTTGCCT (site CTTACCGCTAG)", 1.19],
  ["TGTAGTCCTTGGGTTCTAACCTGTTGCAT (site TGTAGTCCTAA)", 0.232],
  ["TTAGAGACTTGGGTTCTAACCTGTTGCCT (site TTAGAGGCTAG)", 1.4]
]}

---

# run description: recombinant barcode read abundance after kanamycin selection (control-corrected) (log10(CPM+1)); higher = more efficient recombination; sequences stand for … in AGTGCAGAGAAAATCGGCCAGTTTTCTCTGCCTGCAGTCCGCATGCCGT…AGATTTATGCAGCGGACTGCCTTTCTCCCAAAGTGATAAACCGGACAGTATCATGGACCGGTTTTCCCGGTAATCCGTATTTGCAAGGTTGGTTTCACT; site = the 11-nt target
Returns Y if the recorded recombinant barcode read abundance (log10) is greater than or equal to 0.7, and N otherwise.

{"columns": ["sequence text", "cat"],
 "data": [
  ["CTCTATCCTTGGGTTCTAACCTGTTGCGT (site CTCTAGCCTAC)", "N"],
  ["ATGAGAACTTGGGTTCTAACCTGTTGCCG (site ATGAGAACTCG)", "Y"],
  ["GGGGCACCTTGGGTTCTAACCTGTTGCCT (site GGGGCACCTAC)", "N"],
  ["GTCTAAGCTTGGGTTCTAACCTGTTGCCG (site GTCTACGCTTG)", "N"],
  ["GCGGAAGCTTGGGTTCTAACCTGTTGCCT (site GTGGAAGCTAG)", "N"],
  ["TAGTAGTCTTGGGTTCTAACCTGTTGCAT (site TAGTAGTCTAC)", "Y"],
  ["ACCCGTACTTGGGTTCTAACCTGTTGCCT (site ACCGGTACTAG)", "N"],
  ["CTGTTATCTTGGGTTCTAACCTGTTGCCT (site CTATTATCTAG)", "N"],
  ["GGCCTCCCTTGGGTTCTAACCTGTTGCCT (site GGCGTCCCTAG)", "Y"],
  ["GTAGTACCTTGGGTTCTAACCTGTTGCCT (site GTAGTACCTAG)", "Y"],
  ["GAATTAGCTTGGGTTCTAACCTGTTGCGG (site GAATTAGCTCC)", "Y"],
  ["CTACTAACTTGGGTTCTAACCTGTTGCTT (site CTACTAACTAA)", "N"],
  ["ACTGGTACTTGGGTTCTAACCTGTTGCCT (site ACTGGTACTAG)", "Y"],
  ["CATTCTGCTTGGGTTCTAACCTGTTGCCT (site CATTCTGCTAG)", "N"],
  ["GCCACTCCTTGGGTTCTAACCTGTTGCGT (site GCCACTCCTAC)", "N"],
  ["AGTACGCCTTGGGTTCTAACCTGTTGCCT (site AGTACGCCTAG)", "N"],
  ["TCTTATTCTTGGGTTCTAACCTGTTGCCT (site TCTGATTCTCG)", "N"],
  ["CGCAAATCTTGGGTTCTAACCTGTTGCCT (site CGCAAATCTAG)", "N"],
  ["AAATCGTCTTGGGTTCTAACCTGTTGCCT (site AAATCGTCTAG)", "Y"],
  ["ACGTCAACTTGGGTTCTAACCTGTTGCCT (site ACATCAACTAG)", "N"]
]}
